molecular target: CK1ε (Homo sapiens, UniProt P49674); experiment: CK1ε kinase assay (Caliper LabChip electrophoretic separation of fluoresceinated peptide substrate and product); assay type: biochemical; settings: 200 pM CK1ε, 50 μM ATP, 1.5 μM peptide, 22 hours at room temperature; read-out: CK1ε IC50 range
Sequence (P49674 whole entry): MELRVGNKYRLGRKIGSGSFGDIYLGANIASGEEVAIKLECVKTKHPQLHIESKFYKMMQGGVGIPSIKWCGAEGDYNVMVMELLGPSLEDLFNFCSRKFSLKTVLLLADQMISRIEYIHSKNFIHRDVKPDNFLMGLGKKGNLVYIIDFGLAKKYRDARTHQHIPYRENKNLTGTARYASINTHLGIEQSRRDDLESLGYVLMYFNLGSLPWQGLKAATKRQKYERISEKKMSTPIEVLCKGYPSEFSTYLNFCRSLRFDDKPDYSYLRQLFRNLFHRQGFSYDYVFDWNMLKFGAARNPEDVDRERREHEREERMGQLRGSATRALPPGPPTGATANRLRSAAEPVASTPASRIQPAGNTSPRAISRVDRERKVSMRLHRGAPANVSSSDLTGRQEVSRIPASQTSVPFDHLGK
pIC50: −log10 of the molar value.
In this section, each of the molecules is paired with its reported pIC50.

[
  {
    "molecule": "COc1cc(F)cc(-c2nn3c(c2C(N)=O)CN(C(=O)NC(C)(C)C)CC3)c1",
    "assayedSystem": "CK1ε (Homo sapiens, UniProt P49674)",
    "result": "7.00 to 8.00"
  }
]

What measured pIC50 is associated with NC(=O)c1c(-c2cccc(F)c2)nn2c1CN(C(=O)NC1CCN(CCC(F)(F)F)CC1)CC2 on CK1ε (Homo sapiens, UniProt P49674)?
5.70 to 7.00

Now give it for CC(C)(NC(=O)N1CCn2nc(-c3ccc(Cl)c(Cl)c3)c(C(N)=O)c2C1)C1CCC(F)(F)CC1 too.
8.00 to 11.00

Next entry: NC(=O)c1c(-c2ccc(F)c(Cl)c2)nn2c1CN(C(=O)NC13CCC(c4ccc(F)cc4)(CC1)CC3)CC2
8.00 to 11.00

Query CC1(NC(=O)N2CCn3nc(-c4ccc(F)c(Cl)c4)c(C(N)=O)c3C2)CC2(C1)CC2(F)F (single isomer, unassigned) [Compound 327] next
8.00 to 11.00

Next molecule: CC(C)(C)NC(=O)N1Cc2c(C(N)=O)c(-c3ccc(F)c(Cl)c3)nn2C(CCF)C1 (single isomer, unassigned) [Compound A103]
8.00 to 11.00

One more molecule: CC(C)(C)NC(=O)N1CCn2nc(-c3cccc(OC(F)(F)F)c3)c(C(N)=O)c2C1
5.70 to 7.00

Lookup CS(=O)(=O)[C@H]1C[C@@H](NC(=O)N2CCn3nc(-c4ccc(Cl)c(Cl)c4)c(C(N)=O)c3C2)C1
8.00 to 11.00

###

target: CK1ε (Homo sapiens, UniProt P49674); assay: CK1ε kinase assay (Caliper LabChip electrophoretic separation of fluoresceinated peptide substrate and product); assay type: biochemical; details: 200 pM CK1ε, 50 μM ATP, 1.5 μM peptide, 22 hours at room temperature; read-out: CK1ε IC50 range
recordedMetric: IC50

[
  {
    "smilesString": "NC(=O)c1c(-c2ccc(F)c(Cl)c2)nn2c1CN(C(=O)NC13CCC(C(F)F)(CC1)C3)CC2",
    "IC50": "0.01 to 10 nM"
  }
]

For CK1ε (Homo sapiens, UniProt P49674), provide IC50 of COc1cc(NC(=O)N2CCn3nc(-c4cccc(F)c4)c(C(N)=O)c3C2)ncn1 please.
10 to 100 nM

What do you get for CC(=O)N1CC2(C1)CN(C(=O)NC(C)(C)C)Cc1c(C(N)=O)c(-c3ccc(F)c(Cl)c3)nn12 ?
0.01 to 10 nM

Note, next up: NC(=O)c1c(-c2cccc(F)c2)nn2c1CN(C(=O)Nc1c(Cl)cccc1C(F)(F)F)CC2
100 to 2000 nM

###

biological target: CK1δ (Homo sapiens, UniProt P48730); test: CK1δ kinase assay (Caliper LabChip electrophoretic separation of fluoresceinated peptide substrate and product); assay type: biochemical; details: 200 pM CK1δ, 50 μM ATP, 1.5 μM peptide, 22 hours at room temperature; read-out: CK1δ IC50 range
Sequence (P48730 whole entry): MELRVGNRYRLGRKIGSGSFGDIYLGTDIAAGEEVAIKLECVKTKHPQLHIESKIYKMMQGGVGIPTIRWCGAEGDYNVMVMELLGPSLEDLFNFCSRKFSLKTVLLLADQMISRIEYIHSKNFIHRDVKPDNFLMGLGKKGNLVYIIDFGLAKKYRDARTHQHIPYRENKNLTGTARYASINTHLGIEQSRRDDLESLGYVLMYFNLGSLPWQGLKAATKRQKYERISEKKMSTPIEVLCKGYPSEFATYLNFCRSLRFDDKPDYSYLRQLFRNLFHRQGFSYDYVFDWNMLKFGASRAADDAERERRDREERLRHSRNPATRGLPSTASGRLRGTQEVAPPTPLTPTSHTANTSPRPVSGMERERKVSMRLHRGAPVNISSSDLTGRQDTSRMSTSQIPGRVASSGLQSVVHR
recordedMetric: IC50

Given the compound NC(=O)c1c(-c2ccc(F)c(Cl)c2)nn2c1CN(C(=O)NC1CC3(C1)CC3(F)F)CC2 (single isomer, unassigned) [Compound 320] , what is its reported IC50?
0.01 to 10 nM

Please do the same for N#CC12C3C4C1C1C2C3C41NC(=O)N1CCn2nc(-c3cccc(Cl)c3)c(C(N)=O)c2C1 (stereo not drawn) as well.
0.01 to 10 nM

Again, but for NC(=O)c1c(-c2cccc(Cl)c2)nn2c1CN(C(=O)NC(CF)(CF)CF)CC2
0.01 to 10 nM

Likewise for CC(C)(C)NC(=O)N1CCn2nc(-c3cncnc3)c(C(N)=O)c2C1 ?
100 to 2000 nM

Entry to check: NC(=O)c1c(-c2ccc(Cl)c(Cl)c2)nn2c1CN(C(=O)NC1(C(F)F)CC(F)(F)C1)CC2
0.01 to 10 nM

Please answer likewise for NC(=O)c1c(-c2ccc(F)c(Cl)c2)nn2c1CN(C(=O)NC1CC(F)(F)C1)[C@@H]1COC[C@@H]12
0.01 to 10 nM

Follow-up entry: CC(C)(C)NC(=O)N1CCn2nc(-c3cnc(N4CCCC4)nc3)c(C(N)=O)c2C1
100 to 2000 nM

Another compound to check: CC(C)(NC(=O)N1CCn2nc(-c3ccc(F)c(Cl)c3)c(C(N)=O)c2C1)C(=O)N1CCCC1
0.01 to 10 nM

Now the same for NC(=O)c1c(-c2ccc(F)c(Cl)c2)nn2c1CN(C(=O)NC13CCC(CF)(CC1)CC3)CC2
0.01 to 10 nM

###

molecular target: CK1ε (Homo sapiens, UniProt P49674); experiment: CK1ε kinase assay (Caliper LabChip electrophoretic separation of fluoresceinated peptide substrate and product); assay type: biochemical; settings: 200 pM CK1ε, 50 μM ATP, 1.5 μM peptide, 22 hours at room temperature; read-out: CK1ε IC50 range
recordedMetric: IC50

[
  {
    "compound": "N#Cc1ccc(NC(=O)N2CCn3nc(-c4cccc(F)c4)c(C(N)=O)c3C2)cc1 [Compound 61]",
    "IC50": "0.01 to 10 nM"
  }
]

Now consider a different compound.
What value of IC50 has been recorded for this entry: CC(C)(O)[C@H]1CN(C(=O)NC2CC(F)(F)C2)Cc2c(C(N)=O)c(-c3ccc(F)c(Cl)c3)nn21 [Compound A20]
0.01 to 10 nM

###

target: CK1δ (Homo sapiens); assay: CK1δ kinase assay (Caliper LabChip electrophoretic separation of fluoresceinated peptide substrate and product); type: biochemical; details: 200 pM CK1δ, 50 μM ATP, 1.5 μM peptide, 22 hours at room temperature; read-out: CK1δ IC50 range
pIC50: −log10 of the molar value.
Reported pIC50 values follow for various compounds

The following compounds have reported results that may help.
[
  {
    "compound": "CC(C)(C)NC(=O)N1CCn2nc(-c3cccc(C(=O)O)c3)c(C(N)=O)c2C1 [Compound 122]",
    "assayedSystem": "CK1δ (Homo sapiens)",
    "pIC50": "5.70 to 7.00"
  },
  {
    "compound": "NC(=O)c1c(-c2ccc(F)c(Cl)c2)nn2c1CN(C(=O)N[C@H]1C[C@H](F)C1)CC2 [Compound 189]",
    "assayedSystem": "CK1δ (Homo sapiens)",
    "pIC50": "8.00 to 11.00"
  },
  {
    "compound": "COC12CCC(NC(=O)N3CCn4nc(-c5cccc(Cl)c5)c(C(N)=O)c4C3)(CC1)C(F)(F)C2 [Compound A81]",
    "assayedSystem": "CK1δ (Homo sapiens)",
    "pIC50": "8.00 to 11.00"
  },
  {
    "compound": "CC(C)(C)NC(=O)N1Cc2c(C(N)=O)c(-c3ccc(F)c(Cl)c3)nn2[C@H]2COC[C@H]21 [Compound 352]",
    "assayedSystem": "CK1δ (Homo sapiens)",
    "pIC50": "7.00 to 8.00"
  },
  {
    "compound": "COC12CCC(NC(=O)N3CCn4nc(-c5ccc(F)c(Cl)c5)c(C(N)=O)c4C3)(CC1)CC2 [Compound A59]",
    "assayedSystem": "CK1δ (Homo sapiens)",
    "pIC50": "8.00 to 11.00"
  },
  {
    "compound": "NC(=O)c1c(-c2ccc(Cl)c(Cl)c2)nn2c1CN(C(=O)NC1(c3cccnc3)CC(F)(F)C1)CC2 [Compound 313]",
    "assayedSystem": "CK1δ (Homo sapiens)",
    "pIC50": "8.00 to 11.00"
  }
]

# evaluate next
Which pIC50 reading was recorded for the compound NC(=O)c1c(-c2cccc(Cl)c2)nn2c1CN(C(=O)NC13CCC(CC1)CC3)CC2 [Compound A79] ?
8.00 to 11.00

###

Target: CK1δ (Homo sapiens)
Assay: CK1δ kinase assay (Caliper LabChip electrophoretic separation of fluoresceinated peptide substrate and product)
Type: biochemical
Details: 200 pM CK1δ, 50 μM ATP, 1.5 μM peptide, 22 hours at room temperature; read-out: CK1δ IC50 range
Protocol: CK1ε and CK1δ Kinase Assays The kinase assay was performed in V-bottom 384-well plates. […] The reaction was incubated at room temperature for 22 hours and terminated by adding 45 μl of 35 mM EDTA to each sample. The reaction mixture was analyzed on the Caliper LABCHIP®3000 (Caliper, Hopkinton, Mass.) by electrophoretic separation of the unphosphorylated substrate and phosphorylated product. […] Compounds were dissolved at 10 mM in dimethylsulfoxide (DMSO) and evaluated at eleven concentrations. […]
Reported IC50 values for the following molecules.

Use the examples below as a reference point.
[
  {
    "molecule": "NC(=O)c1c(-c2cccc(Cl)c2)nn2c1CN(C(=O)NC13CCC(F)(CC1)CC3)CC2",
    "assayedSystem": "CK1δ (Homo sapiens)",
    "IC50": "0.01 to 10 nM"
  },
  {
    "molecule": "CC(C)(NC(=O)N1CCn2nc(-c3cccc(Cl)c3)c(C(N)=O)c2C1)C1CC(F)(F)C1",
    "assayedSystem": "CK1δ (Homo sapiens)",
    "IC50": "0.01 to 10 nM"
  },
  {
    "molecule": "NC(=O)c1c(-c2cccc(F)c2)nn2c1CN(C(=O)Nc1c(Cl)cccc1C(F)(F)F)CC2",
    "assayedSystem": "CK1δ (Homo sapiens)",
    "IC50": "100 to 2000 nM"
  },
  {
    "molecule": "CC1CN(C(=O)NC2CC(F)(F)C2)Cc2c(C(N)=O)c(-c3cccc(Cl)c3)nn21 (single isomer, unassigned) [Compound A111]",
    "assayedSystem": "CK1δ (Homo sapiens)",
    "IC50": "0.01 to 10 nM"
  },
  {
    "molecule": "COC12CCC(NC(=O)N3CCn4nc(-c5ccc(F)c(Cl)c5)c(C(N)=O)c4C3)(CC1)C2",
    "assayedSystem": "CK1δ (Homo sapiens)",
    "IC50": "0.01 to 10 nM"
  },
  {
    "molecule": "NC(=O)c1c(-c2ccc(Cl)c(Cl)c2)nn2c1CN(C(=O)N[C@H]1C[C@H](OC(F)(F)F)C1)CC2",
    "assayedSystem": "CK1δ (Homo sapiens)",
    "IC50": "0.01 to 10 nM"
  },
  {
    "molecule": "NC(=O)c1c(-c2cccc(Cl)c2)nn2c1CN(C(=O)NC1(C(F)(F)F)CC1)CC2",
    "assayedSystem": "CK1δ (Homo sapiens)",
    "IC50": "0.01 to 10 nM"
  },
  {
    "molecule": "COCC(C)(C)NC(=O)N1CCn2nc(-c3cccc(Cl)c3)c(C(N)=O)c2C1",
    "assayedSystem": "CK1δ (Homo sapiens)",
    "IC50": "0.01 to 10 nM"
  },
  {
    "molecule": "CC(C)(C)NC(=O)N1Cc2c(C(N)=O)c(-c3ccc(F)c(Cl)c3)nn2C(C(C)(C)C)C1 (centres unmarked) [Compound A118]",
    "assayedSystem": "CK1δ (Homo sapiens)",
    "IC50": "0.01 to 10 nM"
  },
  {
    "molecule": "NC(=O)c1c(-c2cccc(F)c2)nn2c1CN(C(=O)Nc1ccccc1C(F)(F)F)CC2",
    "assayedSystem": "CK1δ (Homo sapiens)",
    "IC50": "10 to 100 nM"
  }
]

Which IC50 reading was recorded for the molecule CC(C)(C)NC(=O)N1Cc2c(C(N)=O)c(-c3ccc(F)c(Cl)c3)nn2C(CCO)C1 (single isomer, unassigned) [Compound A96] ?
0.01 to 10 nM

// repeat for CC(C)(NC(=O)N1CCn2nc(-c3ccc(Cl)c(Cl)c3)c(C(N)=O)c2C1)C1CCC(F)(F)CC1 and report
0.01 to 10 nM

Now the molecule NC(=O)c1c(-c2ccc(F)c(Cl)c2)nn2c1CN(C(=O)N[C@@H]1C[C@@H]3[C@H](C1)C3(F)F)CC2
0.01 to 10 nM

Try this molecule next: CC(C)(C)NC(=O)N1Cc2c(C(N)=O)c(-c3ccc(F)c(Cl)c3)nn2C(C(F)(F)F)C1 (single isomer, unassigned) [Compound A127]
100 to 2000 nM
